# Test name: Clearance in Sprague-Dawley rat at 2 mg/kg, iv
# Assay type: ADME, organism-based
# Parameters: dose 2 mg/kg, route intravenous
# Condition context: in vivo
Measure: clearance

Query: Form field: reported clearance of CC(C)(C[C@@](O)(Cc1cc2ccc(C#N)cc2[nH]1)C(F)(F)F)c1cc(S(C)(=O)=O)cc2c1OCC2
Reply: 51 mL/min/kg

* * *

# System: Mus musculus
# Test name: Antiinflammatory activity in mouse plasma assessed as inhibition of LPS-induced TNFalpha production at 10 mg/kg, po administered 1 hr before LPS challenge measured after 1 hr
# Assay type: functional
Measure: inhibition in vivo at 10 mg/kg (%)
State just the number; it will be interpreted in %.

Query: Form field: reported inhibition in vivo at 10 mg/kg of CC(C)(C[C@@](O)(Cc1cc2ccc(C#N)cc2[nH]1)C(F)(F)F)c1cc(S(C)(=O)=O)cc2c1OCC2
Reply: 88

Query: Form field: reported inhibition in vivo at 10 mg/kg of COc1ccc(F)cc1C(C)(C)C[C@@](O)(Cc1cc2ccccc2[nH]1)C(F)(F)F
Reply: 35

Query: Form field: reported inhibition in vivo at 10 mg/kg of CC(C)(C[C@@](O)(Cc1cc2ccccc2[nH]1)C(F)(F)F)c1cc(Br)cc2c1OCC2
Reply: 61

Query: Form field: reported inhibition in vivo at 10 mg/kg of CC(C)(CC(O)(Cc1cc2cc(C#N)ccc2[nH]1)C(F)(F)F)c1cc(S(C)(=O)=O)cc2c1OCC2 (racemic)
Reply: 77

Query: Form field: reported inhibition in vivo at 10 mg/kg of C[C@]12C=CC(=O)C=C1CC[C@@H]1[C@@H]2[C@@H](O)C[C@@]2(C)[C@H]1CC[C@]2(O)C(=O)CO
Reply: 84

Query: Form field: reported inhibition in vivo at 10 mg/kg of CC(C)(CC(O)(Cc1cc2ccc(C#N)cc2[nH]1)C(F)(F)F)c1cc(S(C)(=O)=O)cc2c1OCC2 (racemic)
Reply: 66
